test: Single oral dose plasma pharmacokinetics in fasted and fed healthy subjects (food effect, ethnicity); type: in vivo, human; conditions: both sexes, human, plasma, po, 2000 mg, 2000 mg oral, Fed (Part 2); read-out: AUC0-inf, Geometric Mean (analysis of variance model)
reported-endpoint: AUC(0-inf)

{"chemical-smiles": "CNC(=O)c1ccc(NCC#Cc2cc3c(N[C@@H]4CCN(C)C[C@@H]4F)cccc3n2CC(F)(F)F)c(OC)c1", "reported-endpoint": "AUC(0-inf)", "measured-value": "465 µg·h/mL"}

---

experiment: Single oral dose plasma pharmacokinetics in fasted and fed healthy subjects (food effect, ethnicity); format: in vivo, human; settings: both sexes, human, plasma, po, 2000 mg, 2000 mg oral, Fasted, Japanese; read-out: AUC0-inf, GeoMean
reported-endpoint: AUC(0-inf)

{"chemical-smiles": "CNC(=O)c1ccc(NCC#Cc2cc3c(N[C@@H]4CCN(C)C[C@@H]4F)cccc3n2CC(F)(F)F)c(OC)c1", "reported-endpoint": "AUC(0-inf)", "measured-value": "338 µg·h/mL"}

Ref: patent US20250319063A1
